assay: LNP particle size and PDI (Malvern ZetaSizer); assay type: physicochemical; conditions: LNP of Compound:cholesterol:DSPC:DMG-PEG2000=50:38.5:10:1.5 encapsulating mRNA
quantity_measured: PDI

Here are 3 compounds together with their reported answers.
[[record]]
compound = "CCCCCCCCC(CCCCCCCC)CC(=O)CCCCCCCC1(CCCCCCCC(=O)OC(CCCCCCCC)CCCCCCCC)OCC(CCN(C)C)O1 (stereo not shown)"
endpoint_result = 0.10

[[record]]
compound = "CCCCCCCCCCCOC(=O)CCCCCC1(CCCCCCCC(=O)OC(CCCCCCCC)CCCCCCCC)OCC(CCN(C)C)O1 (stereo not shown)"
endpoint_result = 0.03414

[[record]]
compound = "CCCCCCCCCCCOC(=O)CCCCCC1(CCCCCC(=O)OCCCCCCCCCCC)OCC(CCN(C)C)O1 (stereo not shown)"
endpoint_result = 0.34


I = CCCCCCCCCCCOC(=O)CCCCCC1(CCCCCCCC(=O)OC(CCCCCCCC)CCCCCCCC)OCC(CN(C)C)O1 (stereo not shown)
II = CCCCCCCCCCCOC(=O)CCCCCC1(CCCCCCCC(=O)OC(CCCCCCCC)CCCCCCCC)OCC(CCN(CC)C(C)C)O1 (stereo not shown)
Sorting ascending by PDI, which comes first: I or II ? Your answer should be the label attached to the chosen record.
II

###

assay: LNP mRNA encapsulation efficiency (Quant-iT RiboGreen RNA Assay Kit); format: physicochemical; conditions: LNP of Compound:cholesterol:DSPC:DMG-PEG2000=50:38.5:10:1.5 encapsulating mRNA
quantity_measured: Encapsulation Efficiency (%)

[[record]]
compound = "CCCCCCCCCCCOC(=O)CCCCCC1(CCCCCCCC(=O)OC(CCCCCCCC)CCCCCCCC)OCC(CN(C)C)CO1 (centres unmarked)"
quantity_measured = "Encapsulation Efficiency"
endpoint_result = 97.22

[[record]]
compound = "CCCCCC(CCCCC)CCOC(=O)CCCCCCCC1(CCCCCCCC(=O)OCCC(CCCCC)CCCCC)OC[C@H](CCN(C)C)O1 [Compound 20A]"
quantity_measured = "Encapsulation Efficiency"
endpoint_result = 92.5

[[record]]
compound = "CCCCCCCCCCCOC(=O)CCCCCC1(CCCCCCCC(=O)OC(CCCCCCCC)CCCCCCCC)OCC(CCN(CC)C(C)C)O1 (centres unmarked)"
quantity_measured = "Encapsulation Efficiency"
endpoint_result = 97.6

[[record]]
compound = "CCCCCCCCCCC(=O)OCCCCCCC1(CCCCCCCC(=O)OC(CCCCCCCC)CCCCCCCC)OC[C@@H](CCN(C)C)O1 (some centres unmarked)"
quantity_measured = "Encapsulation Efficiency"
endpoint_result = 98.4

[[record]]
compound = "CCCCCCCCCCCOC(=O)CCCCCC1(CCCCCCCC(=O)OC(CCCCCCCC)CCCCCCCC)OCC(CCCCN(C)C)O1 (centres unmarked)"
quantity_measured = "Encapsulation Efficiency"
endpoint_result = 90.97

[[record]]
compound = "CCCCCCCCCCCOC(=O)CCCCCC1(CCCCCCCC(=O)OC(CCCCCCCC)CCCCCCCC)OCC(CCN(C)CCC)O1 (centres unmarked)"
quantity_measured = "Encapsulation Efficiency"
endpoint_result = 97.2

[[record]]
compound = "CCCCCCCCCCCOC(=O)CCCCCC1(CCCCCC(=O)OCCCCCCCCCCC)OCC(CCN(C)C)O1 (centres unmarked)"
quantity_measured = "Encapsulation Efficiency"
endpoint_result = 93.3

[[record]]
compound = "CCCCCCCCCCC(=O)OCCCCCCC1(CCCCCCCCOC(=O)C(CCCCCCCC)CCCCCCCC)OCC(CCN(C)C)O1 (centres unmarked)"
quantity_measured = "Encapsulation Efficiency"
endpoint_result = 90.99

[[record]]
compound = "CCCCCCCCCCC(=O)OCCCCCCC1(CCCCCCCC(=O)OC(CCCCCCCC)CCCCCCCC)OCC(CCN(C)C)O1 (centres unmarked)"
quantity_measured = "Encapsulation Efficiency"
endpoint_result = 94.92

[[record]]
compound = "CCCCCCCCCCC(=O)OCCCCCCC1(CCCCCCCC(=O)OC(CCCCCCCC)CCCCCCCC)OCC(CN(C)C)O1 (centres unmarked)"
quantity_measured = "Encapsulation Efficiency"
endpoint_result = 95.50

[[record]]
compound = "CCCCCCCCCCCOC(=O)CCCCCC1(CCCCCCCC(=O)OC(CCCCCCCC)CCCCCCCC)OCC(CCN(CC)CC)O1 (centres unmarked)"
quantity_measured = "Encapsulation Efficiency"
endpoint_result = 97.5

[[record]]
compound = "CCCCCCCCCCC(=O)OCCCCCCC1(CCCCCCCC(=O)OC(CCCCCCCC)CCCCCCCC)OC[C@H](CCN(C)C)O1 (some centres unmarked)"
quantity_measured = "Encapsulation Efficiency"
endpoint_result = 96.0

[[record]]
compound = "CCCCCCCCCCCOC(=O)CCCCCC1(CCCCCCCC(=O)OC(CCCCCCCC)CCCCCCCC)OCC(CN(C)C)O1 (centres unmarked)"
quantity_measured = "Encapsulation Efficiency"
endpoint_result = 95.04

[[record]]
compound = "CCCCCCCCCCCOC(=O)CCCCCN(CCO)CCCCCCCC(=O)OC(CCCCCCCC)CCCCCCCC [SM-102, reference compound]"
quantity_measured = "Encapsulation Efficiency"
endpoint_result = 97.5


###

Assay: LNP mRNA encapsulation efficiency (Quant-iT RiboGreen RNA Assay Kit)
Format: physicochemical
Conditions: LNP of Compound:cholesterol:DSPC:DMG-PEG2000=50:38.5:10:1.5 encapsulating mRNA
Experimental: The mRNA stock solution was dispersed in 20 mM acetic acid solution (pH 5.0) to give a final concentration of 200 μg/mL (aqueous phase). […] Finally, Quant-iT™ RiboGreen™ RNA Assay Kit (Invirtogen by Thermo Fisher Scientific, cat #R11490), and 10% Triton X-100 solution or 10% OTG solution as an emulsion breaker were used to detect the total and free content of mRNA in the LNP, and the encapsulation efficiency of LNP was calculated.
quantity_measured: Encapsulation Efficiency (%)

[[record]]
compound = "CCCCCCCCC(CCCCCCCC)CC(=O)CCCCCCCC1(CCCCCCCC(=O)OC(CCCCCCCC)CCCCCCCC)OCC(CCN(C)C)O1 (stereo not shown)"
unit_symbol = "%"
endpoint_result = 96.5

[[record]]
compound = "CCCCCCCCCCC(=O)OCCCCCCC1(CCCCCCCCOC(=O)C(CCCCCCCC)CCCCCCCC)OCC(CN(C)C)O1 (stereo not shown)"
unit_symbol = "%"
endpoint_result = 96.52

[[record]]
compound = "CCCCCCCCCCC(=O)OCCCCCCC1(CCCCCCCC(=O)OC(CCCCCCCC)CCCCCCCC)OCC(CN(C)C)CO1 (stereo not shown)"
unit_symbol = "%"
endpoint_result = 96.23

[[record]]
compound = "CCCCCCCCCCCNC(=O)CCCCCC1(CCCCCCCC(=O)NC(CCCCCCCC)CCCCCCCC)OCC(CCN(C)C)O1 (stereo not shown)"
unit_symbol = "%"
endpoint_result = 98.2

[[record]]
compound = "CCCCCCCCCCCOC(=O)CCCCCC1(CCCCCCCC(=O)OC(CCCCCCCC)CCCCCCCC)OC[C@H](CCN(C)C)O1 (stereo partly shown)"
unit_symbol = "%"
endpoint_result = 96.44

[[record]]
compound = "CCCCCCCCCCCOC(=O)CCCCCC1(CCCCCCCC(=O)OC(CCCCCCCC)CCCCCCCC)OCC(CCN(C)C)O1 (stereo not shown)"
unit_symbol = "%"
endpoint_result = 92.32

[[record]]
compound = "CCCCCCCCCCCOC(=O)CCCCCC1(CCCCCCCC(=O)OC(CCCCCCCC)CCCCCCCC)OCC(CCCN(C)C)O1 (stereo not shown)"
unit_symbol = "%"
endpoint_result = 89.3


###

assay: LNP particle size and PDI (Malvern ZetaSizer); assay type: physicochemical; conditions: LNP of Compound:cholesterol:DSPC:DMG-PEG2000=50:38.5:10:1.5 encapsulating mRNA
quantity_measured: PDI

These recorded examples may help you get a feel for the data.
[[record]]
compound = "CCCCCCCCCCCOC(=O)CCCCCC1(CCCCCCCC(=O)OC(CCCCCCCC)CCCCCCCC)OCC(CCCCN(C)C)O1 (centres unmarked) [Compound 14]"
endpoint_result = 0.16

[[record]]
compound = "CCCCCCCCCCC(=O)OCCCCCCC1(CCCCCCCC(=O)OC(CCCCCCCC)CCCCCCCC)OC[C@H](CCN(C)C)O1 (some centres unmarked) [Compound 5A]"
endpoint_result = 0.1311

[[record]]
compound = "CCCCCCCCCCCOC(=O)CCCCCC1(CCCCCCCC(=O)OC(CCCCCCCC)CCCCCCCC)OCC(CCN(C)CCC)O1 (centres unmarked) [Compound 15]"
endpoint_result = 0.10

[[record]]
compound = "CCCCCCCCCCC(=O)OCCCCCCC1(CCCCCCCC(=O)OC(CCCCCCCC)CCCCCCCC)OCC(CN(C)C)O1 (centres unmarked) [Compound 6]"
endpoint_result = 0.1676

[[record]]
compound = "CCCCCCCCCCCOC(=O)CCCCCC1(CCCCCCCC(=O)OC(CCCCCCCC)CCCCCCCC)OC[C@H](CCN(C)C)O1 (some centres unmarked) [Compound 2A]"
endpoint_result = 0.02967


1 = CCCCCCCCCCC(=O)OCCCCCCC1(CCCCCCCC(=O)OC(CCCCCCCC)CCCCCCCC)OCC(CN(C)C)CO1 (centres unmarked) [Compound 4]
2 = CCCCCCCCCCCOC(=O)CCCCCC1(CCCCCCCC(=O)OC(CCCCCCCC)CCCCCCCC)OCC(CCN(CC)CC)O1 (centres unmarked) [Compound 11]
Between 1 and 2 , which one shows the larger PDI value? Please indicate the selected item by its label.
1
(1: 0.1387, 2: 0.06)

I = CCCCCCCCCCC(=O)OCCCCCCC1(CCCCCCCCOC(=O)C(CCCCCCCC)CCCCCCCC)OCC(CN(C)C)CO1 (centres unmarked) [Compound 9]
II = CCCCCCCCCCC(=O)OCCCCCCC1(CCCCCCCC(=O)OC(CCCCCCCC)CCCCCCCC)OC[C@@H](CCN(C)C)O1 (some centres unmarked) [Compound 5B]
Param metric = PDI; output whichever of I , II has the minimum value. Please reply using the label of the selected record.
II
(II: 0.04848, I: 0.1368)

1 = CCCCCCCCCCC(=O)OCCCCCCC1(CCCCCCCC(=O)OC(CCCCCCCC)CCCCCCCC)OCC(CCN(C)C)O1 (centres unmarked) [Compound 5]
2 = CCCCCCCCCCCOC(=O)CCCCCC1(CCCCCCCC(=O)OC(CCCCCCCC)CCCCCCCC)OCC(CCN(C)CC)O1 (centres unmarked) [Compound 10]
3 = CCCCCCCCCCC(=O)OCCCCCCC1(CCCCCCCCOC(=O)C(CCCCCCCC)CCCCCCCC)OCC(CN(C)C)O1 (centres unmarked) [Compound 7]
Provide the items ranked by increasing PDI. The labels, placed in the requested order, form the answer.
1, 2, 3
(1: 0.04107, 2: 0.07, 3: 0.1537)
